Listed binders paired with reported pKd
- ASSAYED TARGET: T1, monomeric soluble human BTLA extracellular domain (BTLA K31-R151) (human, UniProt Q7Z6A9 31-151)
- T1 construct: also called hBTLA; monomeric BTLA
- T1 sequence (Q7Z6A9 31-151): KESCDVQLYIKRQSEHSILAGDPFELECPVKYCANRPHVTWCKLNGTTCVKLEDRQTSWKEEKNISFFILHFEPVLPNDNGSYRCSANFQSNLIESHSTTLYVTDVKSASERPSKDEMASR
- EXPERIMENTAL DETAILS: SPR 37C, mAb captured, BTLA ECD analyte;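 note: Anti-BTLA mouse antibodies captured on a sensor chip via polyclonal anti-mouse IgG, isotype control antibody in reference channel, rates fitted after reference and blank subtraction to derive Kd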
Keep in mind that pKd stands for -log10 of concentration in molar terms.

Use these answered entries as a reference point.
BINDER: 21C7 (antibody, IgG1, V domains shown, mIgG1) VH: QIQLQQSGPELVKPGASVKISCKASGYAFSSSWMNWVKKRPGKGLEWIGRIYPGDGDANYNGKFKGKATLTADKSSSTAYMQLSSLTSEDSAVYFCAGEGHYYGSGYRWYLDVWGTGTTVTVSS VL: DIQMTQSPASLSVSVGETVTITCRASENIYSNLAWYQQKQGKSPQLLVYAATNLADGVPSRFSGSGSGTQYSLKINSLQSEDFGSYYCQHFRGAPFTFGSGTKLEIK
pKd: 7.36
--
BINDER: 12F11 (antibody, IgG1, V domains shown, mIgG1) VH: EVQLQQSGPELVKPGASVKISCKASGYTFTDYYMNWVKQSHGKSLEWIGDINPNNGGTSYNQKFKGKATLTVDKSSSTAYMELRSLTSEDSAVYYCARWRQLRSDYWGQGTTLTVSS VL: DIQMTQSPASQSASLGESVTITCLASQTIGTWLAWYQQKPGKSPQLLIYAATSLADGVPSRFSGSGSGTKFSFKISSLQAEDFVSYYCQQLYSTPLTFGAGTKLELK
pKd: 6.14
--
BINDER: 7A1 (antibody, IgG1, V domains shown, mIgG1) VH: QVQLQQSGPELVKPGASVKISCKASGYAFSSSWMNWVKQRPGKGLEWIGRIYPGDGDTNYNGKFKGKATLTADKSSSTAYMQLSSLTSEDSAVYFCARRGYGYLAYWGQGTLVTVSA VL: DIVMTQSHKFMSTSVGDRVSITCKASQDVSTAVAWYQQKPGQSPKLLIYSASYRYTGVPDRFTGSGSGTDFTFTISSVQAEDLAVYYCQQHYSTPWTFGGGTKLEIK
pKd: 7.40

Exercise: Read off the recorded pKd for 24H7 (antibody, IgG1, V domains shown, mIgG1) VH: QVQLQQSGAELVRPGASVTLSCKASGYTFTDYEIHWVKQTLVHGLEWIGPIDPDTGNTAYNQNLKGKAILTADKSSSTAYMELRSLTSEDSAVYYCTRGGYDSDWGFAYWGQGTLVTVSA VL: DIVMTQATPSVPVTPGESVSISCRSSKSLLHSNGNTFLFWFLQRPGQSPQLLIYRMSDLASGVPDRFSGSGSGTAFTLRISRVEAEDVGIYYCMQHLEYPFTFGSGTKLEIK
Key: 9.18

Exercise: Read off the recorded pKd for 15C6 (antibody, IgG1, V domains shown, mIgG1) VH: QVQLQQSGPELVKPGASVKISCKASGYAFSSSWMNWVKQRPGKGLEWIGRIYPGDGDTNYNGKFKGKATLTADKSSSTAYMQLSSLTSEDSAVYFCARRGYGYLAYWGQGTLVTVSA VL: DIVMTQSHKFMSTSVGDRVSITCKASQDVSTAVAWYQQKPGQSPKLLIYSASYRYTGVPDRFTGSGSGTDFTFTISSVQAEDLAVYYCQQHYSTPYTFGGGTKLEIK
Key: 6.14
